composite z-score by entry:
target: Focal adhesion kinase 1 (Homo sapiens); assay: small-molecule microarray binders of FAK, primary screen, biochemical, 635/667 nm fluorescence, BSA, DTT (AID 1130); settings: PTK2 binding, 635 nm fluorescence, higher = more signal;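 also: composite of spot emission at 667 nm and signal to noise over triplicate slides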
I'd appreciate a reply containing only the number, no unit.

Compound	composite z-score
COc1ccc(C(O)C2C=CC3C(=O)N(c4ccccc4)C(=O)C3N2Nc2ccccc2)cc1OCc1ccccc1 (configuration not stated)	0.315

Supply measured composite z-score of O=C1O[C@@H](c2ccccc2)[C@@H](c2ccccc2)N2[C@@H](c3ccc(O)cc3)[C@]3(C(=O)Nc4ccc(C#CCCO)cc43)[C@@H](C(=O)Nc3nc4ccccc4s3)[C@H]12 in your reply. 0.31

Supply measured composite z-score of CCCC[C@@H]1C[C@H]1[C@@H](NC(=O)c1cccnc1)c1ccc(-c2ccccc2)cc1 in your reply. -0.14

Supply measured composite z-score of CC1CC/C=C\[C@H]2OC34C=CCN(CCN5CCOCC5)C(=O)[C@H]3N(CCO)C(=O)[C@@H]4C2C(=O)O1 (some centres not stated) in your reply. -0.583

Supply measured composite z-score of CN(C)CCCCNC(=O)[C@H]1C[C@H]2C(=O)N3CCC[C@H]3C(=O)N2[C@H]1c1ccc(O)cc1 in your reply. -0.401

Supply measured composite z-score of CC(C)N1CC=CC23O[C@@H]4C=CCOC(=O)[C@@H]4[C@H]2C(=O)N(C(C)CO)[C@@H]3C1=O (some centres not stated) in your reply. -0.202

Supply measured composite z-score of Cc1ccc(S[C@]2(C(=O)NCCN3CCOCC3)CC(=O)N(Cc3ccccc3C(F)(F)F)[C@@H]2c2ccc(CO)cc2I)cc1 in your reply. 0.167

###

composite z-score by entry:
target: Neurogenic locus notch homolog protein 2 (Homo sapiens) (UniProt Q04721); experiment: Notch2 binders on small-molecule microarrays, primary screen, biochemical, small-molecule microarray, 635 nm fluorescence, stem cell growth factors (AID 1073); conditions: Notch2 binding, higher = more signal
Sequence (Q04721 whole entry, looked up): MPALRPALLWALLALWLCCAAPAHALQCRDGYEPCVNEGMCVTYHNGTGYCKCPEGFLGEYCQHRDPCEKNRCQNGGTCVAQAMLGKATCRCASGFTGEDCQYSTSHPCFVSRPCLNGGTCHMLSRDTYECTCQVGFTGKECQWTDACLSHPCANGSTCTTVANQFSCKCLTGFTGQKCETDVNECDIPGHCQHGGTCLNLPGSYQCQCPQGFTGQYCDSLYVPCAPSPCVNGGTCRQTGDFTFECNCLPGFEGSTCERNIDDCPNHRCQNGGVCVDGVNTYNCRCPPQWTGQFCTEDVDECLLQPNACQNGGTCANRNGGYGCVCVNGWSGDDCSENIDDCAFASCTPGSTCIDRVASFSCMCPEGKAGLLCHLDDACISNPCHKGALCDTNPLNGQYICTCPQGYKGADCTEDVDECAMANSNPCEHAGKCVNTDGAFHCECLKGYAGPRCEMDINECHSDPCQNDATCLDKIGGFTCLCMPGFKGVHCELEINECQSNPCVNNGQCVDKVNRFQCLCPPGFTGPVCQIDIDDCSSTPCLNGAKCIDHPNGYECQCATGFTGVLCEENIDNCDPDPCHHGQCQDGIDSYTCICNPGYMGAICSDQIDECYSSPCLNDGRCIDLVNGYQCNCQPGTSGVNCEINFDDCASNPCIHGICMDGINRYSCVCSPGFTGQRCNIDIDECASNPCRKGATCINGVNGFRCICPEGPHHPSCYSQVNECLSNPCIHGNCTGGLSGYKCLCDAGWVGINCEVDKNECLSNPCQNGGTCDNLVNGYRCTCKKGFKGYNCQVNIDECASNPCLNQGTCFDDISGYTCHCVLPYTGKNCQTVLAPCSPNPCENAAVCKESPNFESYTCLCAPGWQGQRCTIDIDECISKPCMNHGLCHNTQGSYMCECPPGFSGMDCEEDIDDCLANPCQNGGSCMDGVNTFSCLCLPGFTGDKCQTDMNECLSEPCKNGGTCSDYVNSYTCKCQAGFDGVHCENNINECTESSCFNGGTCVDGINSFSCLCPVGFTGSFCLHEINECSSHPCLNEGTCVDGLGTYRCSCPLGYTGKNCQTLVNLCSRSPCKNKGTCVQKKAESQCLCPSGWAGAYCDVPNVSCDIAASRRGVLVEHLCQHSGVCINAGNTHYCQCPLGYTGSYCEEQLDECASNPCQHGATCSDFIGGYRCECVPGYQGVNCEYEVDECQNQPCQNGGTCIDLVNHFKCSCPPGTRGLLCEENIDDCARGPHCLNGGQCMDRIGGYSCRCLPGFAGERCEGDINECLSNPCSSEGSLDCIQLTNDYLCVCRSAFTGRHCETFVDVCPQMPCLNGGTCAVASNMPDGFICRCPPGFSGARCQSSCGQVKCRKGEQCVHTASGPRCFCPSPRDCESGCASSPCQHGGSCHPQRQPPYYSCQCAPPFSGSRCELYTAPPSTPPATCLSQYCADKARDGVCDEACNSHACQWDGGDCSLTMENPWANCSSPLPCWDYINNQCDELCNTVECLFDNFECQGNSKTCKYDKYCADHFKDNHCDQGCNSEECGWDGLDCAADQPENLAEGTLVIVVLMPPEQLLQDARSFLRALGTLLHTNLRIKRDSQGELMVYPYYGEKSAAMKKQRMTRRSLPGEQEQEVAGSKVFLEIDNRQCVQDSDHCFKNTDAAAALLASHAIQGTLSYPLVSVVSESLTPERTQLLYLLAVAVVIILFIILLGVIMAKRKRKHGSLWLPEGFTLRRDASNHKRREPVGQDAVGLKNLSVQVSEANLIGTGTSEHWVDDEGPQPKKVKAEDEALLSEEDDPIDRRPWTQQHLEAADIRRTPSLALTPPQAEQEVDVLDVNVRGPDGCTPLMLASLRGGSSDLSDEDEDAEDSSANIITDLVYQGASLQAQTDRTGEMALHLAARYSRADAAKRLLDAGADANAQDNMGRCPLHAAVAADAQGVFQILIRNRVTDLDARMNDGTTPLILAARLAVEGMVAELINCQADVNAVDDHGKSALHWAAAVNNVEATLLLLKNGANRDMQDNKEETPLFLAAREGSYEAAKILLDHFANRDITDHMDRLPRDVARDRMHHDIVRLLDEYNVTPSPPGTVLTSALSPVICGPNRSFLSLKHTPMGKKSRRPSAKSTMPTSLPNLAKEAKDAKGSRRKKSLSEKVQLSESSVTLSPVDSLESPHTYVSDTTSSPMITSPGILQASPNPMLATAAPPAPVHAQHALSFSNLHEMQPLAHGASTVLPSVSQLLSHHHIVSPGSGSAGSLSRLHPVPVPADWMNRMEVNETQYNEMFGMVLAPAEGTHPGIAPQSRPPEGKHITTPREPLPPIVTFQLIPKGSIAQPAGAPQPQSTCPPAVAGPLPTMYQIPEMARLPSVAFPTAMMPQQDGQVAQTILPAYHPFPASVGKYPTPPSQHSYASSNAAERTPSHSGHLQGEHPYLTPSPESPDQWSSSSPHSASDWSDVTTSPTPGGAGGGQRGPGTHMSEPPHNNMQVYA
I'd appreciate a reply containing only the number, no unit.

Report measured composite z-score on Neurogenic locus notch homolog protein 2 (Homo sapiens) (UniProt Q04721); entry: COc1ccc(NN2C(C(O)c3ccccn3)C=CC3C(=O)N(C4CCCCC4)C(=O)C32)cc1 (stereo not given) 1.59

Report measured composite z-score on Neurogenic locus notch homolog protein 2 (Homo sapiens) (UniProt Q04721); entry: CC=CC(O)C1C=CC2C(=O)N(C)C(=O)C2N1Nc1ccc([N+](=O)[O-])cc1[N+](=O)[O-] (stereo not given) -0.346

Report measured composite z-score on Neurogenic locus notch homolog protein 2 (Homo sapiens) (UniProt Q04721); entry: COc1ccc(C(O)C2C=CC3C(=O)N(C)C(=O)C3N2N2CCCCC2)cc1 (stereo not given) 1.65

Report measured composite z-score on Neurogenic locus notch homolog protein 2 (Homo sapiens) (UniProt Q04721); entry: COC(=O)c1c(CC[C@@H](CO)NC(=O)N[C@H](Cn2cc(-c3ccccc3C)nn2)C(C)C)oc(C(C)=O)c1C(=O)OC -1.18

Report measured composite z-score on Neurogenic locus notch homolog protein 2 (Homo sapiens) (UniProt Q04721); entry: CC(C)CNC(=O)[C@@]1(c2ccc([N+](=O)[O-])cc2)CC(=O)N(C2CCCCC2)[C@@H]1c1ccc(CO)cc1I 0.421

###

assay: S. cerevisiae growth modulation with rapamycin, primary screen, strain BY4716, OD600, 96 h (AID 1091); conditions: called active from +8 up or from −8 down; also: test concentration not given here
Activity calls are given as the source filed them.
# output must be one of 1 for active, 0 for inactive

Solved cases (4 shown):
Compound	Assigned Category
COCCOC(=O)N1C(=O)[C@@]2(c3cc(C#CC4(O)CCCCCC4)ccc31)[C@H](c1ccccc1OCCO)N1[C@H](c3ccccc3)[C@H](c3ccccc3)OC(=O)[C@H]1[C@@H]2C(N)=O	0
Cc1ccc(F)cc1S(=O)(=O)N[C@@H]1CCN(Cc2ccc(OC(C)C)cc2)C1	0
C=C[C@@H](COC(C)=O)NS(=O)(=O)c1ccc(Br)cc1	0
COCCCNC(=O)[C@]1(Cc2ccccc2CN=[N+]=[N-])N=C(c2ccc(OCCCO)cc2)O[C@@H]1c1ccccc1	1

Would you mind telling me which call this test gave CC(C)C(CO)N1C(=O)[C@]2(C)C3C(=O)OCCC/C=C\[C@H]3OC23C=CCN(c2ccc(Cl)cc2)C(=O)[C@@H]13 (some centres not stated) ? 0

Would you mind telling me which call this test gave COCCOC(=O)N1C(=O)[C@@]2(c3cc(C#CC4=CCCCC4)ccc31)[C@H](C(=O)N1CCN(c3ncccn3)CC1)[C@H]1C(=O)O[C@H](c3ccccc3)[C@H](c3ccccc3)N1[C@@H]2c1ccc(O)cc1 ? 0

Would you mind telling me which call this test gave C=C(C(=O)CC[C@H](OC(=O)c1cccnc1)c1cccc(OCCO)c1)C(C)C ? 0

###

biological target: Carbonic anhydrase 2 (Homo sapiens) (UniProt P00918); test: CAII small-molecule binders, profiling panel, biochemical, small-molecule microarray, Alexa647-labelled CAII (AID 1122); conditions: CAII-A647 binding fluorescence, higher = more signal
Readout Kind: composite z-score
I'd appreciate a reply containing only the number, no unit.

> print(dat)
                            compound.string  value.observed
1  O=C(O)[C@H](Cc1ccccc1)n1cc(-c2ccccn2)nn1           0.285
2  C=C[C@H](COC(C)=O)NS(=O)(=O)c1ccc(Br)cc1          -0.111
3  COc1ccc([Si](C)(C)[C@H]2[C@H](CC(=O)N3Cc4ccccc4C[C@H]3CO)O[C@@]3(C(=O)N(Cc4cccc(N5CCCCC5=O)c4)c4ccccc43)[C@@H]2C)cc1           0.498
4  CCOC(=O)C1=CC[C@@H](c2ccccc2)N(S(=O)(=O)c2ccc(C)cc2)C1            0.38
5  O=C1O[C@@H](c2ccccc2)[C@@H](c2ccccc2)N2[C@@H](c3ccc(O)cc3)[C@]3(C(=O)Nc4ccccc43)[C@@H](C(=O)Nc3nc4ccccc4s3)[C@H]12           0.613
6  Cc1ccc(S[C@]2(C(=O)NC3CC3)CC(=O)N(Cc3ccccc3Cl)[C@@H]2c2ccc(CO)cc2I)cc1            0.68

Supply measured composite z-score of O=C1O[C@@H](c2ccccc2)[C@@H](c2ccccc2)N2[C@@H](c3ccccc3OCCO)[C@]3(C(=O)Nc4ccccc43)[C@@H](C(=O)NC[C@H](O)c3ccccc3)[C@H]12 in your reply. 0.586

###

test system: Wnt5a (protein binding on small-molecule microarray); experiment: Wnt5a binders on small-molecule microarray, primary screen, biophysical, 635/667 nm fluorescence (AID 1142); conditions: 635 nm fluorescence, higher = more signal;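 also: fluorescence read at 667 nm with signal to noise per printed feature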
composite z-score of -0.1 or higher: MET. Under -0.1: NOT MET.

> print(dat)
                                   molecule  assigned.category
1  COCCCNC(=O)[C@]1(CCC(=O)OC(C)(C)C)N=C(c2ccc(OCCCO)cc2)O[C@@H]1c1ccccc1                MET
2  C=C(COC)/C(=C/C[C@@H](OC(=O)c1ccncc1)c1cccc(OCCO)c1)c1cnc2ccccc2c1                MET

I'd appreciate it if you could say whether COC(=O)[C@@]1(Cc2ccccc2)[C@H]2c3cc(C(=O)N4CCCC4)n(Cc4ccsc4Br)c3C[C@H]2CN1C(=O)c1ccccc1 has composite z-score at least equal to -0.1. MET

I'd appreciate it if you could say whether COCCCNC(=O)[C@]1(Cc2ccccc2CN=[N+]=[N-])N=C(c2ccc(OCCCO)cc2)O[C@@H]1c1ccccc1 has composite z-score at least equal to -0.1. MET

###

z-score by entry:
assay: CREB reporter modulators under forskolin, primary screen, cell-based, PC12, CRE-LacZ reporter, forskolin-stimulated (AID 1146); conditions: luminescence, 4.5 h, higher = more signal, called active from +8 up or from −8 down;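 also: PC12 cells with 6xCRE LacZ reporter stimulated by forskolin 10 µM; beta-galactosidase reporter signal reflecting CREB driven transcription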
I'd appreciate a reply containing only the number, no unit.

Example cases with answers are listed next.
> print(dat)
                                   compound  value.observed
1  Cc1ccc(S[C@]2(C(=O)NCc3ccccc3)CC(=O)N(C(C)C)[C@@H]2c2ccc(CO)cc2I)cc1            1.95
2  Cc1ccc(F)cc1S(=O)(=O)N[C@@H]1CCN(Cc2ccc(Oc3ccccc3)cc2)C1           0.865
3  O=C1O[C@@H](c2ccccc2)[C@@H](c2ccccc2)N2[C@@H](c3ccccc3OCCO)[C@]3(C(=O)Nc4ccccc43)[C@@H](C(=O)NC[C@H](O)c3ccccc3)[C@H]12            4.03
4  CC(C)CN1C(=O)[C@@]2(Cc3ccccc31)c1ccccc1C(=O)N(Cc1ccccc1C(F)(F)F)[C@H]2c1ccc(CO)cc1          -0.416
5  CCCC[C@@H]1C[C@H]1[C@@H](NC(=O)c1cccnc1)c1ccc(-c2ccccc2)cc1           0.162

Supply measured z-score of C=CC[C@@H](OC(=O)Nc1ccc(OC)cc1)c1ccc(OCCO)cc1 in your reply. 0.0646

Supply measured z-score of C=CCN1C(=O)[C@@]2(O[C@@H](CCn3cc([C@H](O)c4ccccc4)nn3)[C@H]([Si](C)(C)c3ccc(OC)cc3)[C@H]2C)c2ccccc21 in your reply. -0.448

Supply measured z-score of CCCCN1CC=CC23O[C@@H]4C=CCOC(=O)[C@@H]4[C@H]2C(=O)N(CCCO)[C@@H]3C1=O (some centres undefined) in your reply. 1.47

Supply measured z-score of C[C@H]1ON(c2ccc(C(=O)OC(C)(C)C)cc2)[C@@H](c2ccc(O)cc2)[C@@H]1C(=O)N1C(=O)OC[C@@H]1c1ccccc1 in your reply. 0.0621

Supply measured z-score of CCOC(=O)C[C@H]1[C@H](OC(=O)c2ccccc2-c2ccccc2)[C@@H](NC(=O)CC(C)C)c2cc(OCCCO)ccc2N1C(=O)c1ccc2ccccc2n1 in your reply. 0.724
